For each entry below, report its % kill, A431 cells, anti-kappa-ETA' assay value.
# tested target: membrane-bound tissue factor (TF) on cells (human, UniProt P13726 33-295); further: test concentration or dose not given here
# method summary: cell-based or functional assay
Please reply with the bare figure in % and do not write the unit itself.

Look at this binder and give its reported % kill, A431 cells, anti-kappa-ETA' assay. HuMab-TF-013 (antibody, V domains shown) VH: EVQLVQSGAEVKKPGESLKISCKGSGYSFTSYWIGWVRQMPGKGLEWMGIIYPGDSDTRYSPSFQGQVTISADKSISTAYLQWSSLKASDTAMYYCARIHRGAGYSSSWPGAFDIWGQGTMVTVSS VL: DIQMTQSPSSLSASVGDRVTITCRASQGISRWLAWYQQKPEKAPKSLIYAASSLQSGVPSRFSGSGSGTDFTLTISSLQPEDFATYYCQQYDSDPITFGQGTRLEIK 80

Next record, please: Anti-TF HuMab 111 (antibody, IgG1, V domains shown, full length, fully human monoclonal IgG1,kappa) VH: QVQLVESGGGVVQPGRSLRLSCAGSGFTFNRYAMYWVRQAPGKGLDWVAVISNDGINKYYADSVKGRFTISRDNSKNTLYLQMNSLRAEDTAVYYCARDHTMVRGAFDYWGQGTLVTVSS VL: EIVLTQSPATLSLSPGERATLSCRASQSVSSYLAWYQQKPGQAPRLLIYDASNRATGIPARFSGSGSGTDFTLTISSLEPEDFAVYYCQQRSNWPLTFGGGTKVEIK 92
